ASSAY METHOD TEXT: Example 2: open-label dose-escalation pharmacokinetic and safety study in children and adolescents with ADHD
Type: in vivo, human
CONDITION INFO: both sexes, human, plasma, po, 2 mg, single 2 mg oral dose, Day 1; children 6-12 yrs, ADHD patients, N = 14; read-out: AUC0-t
ASSAY READOUT: AUC(0-t)
Record the result as a number with its unit.

Please report the recorded AUC(0-t) for N=C(N)NC(=O)Cc1c(Cl)cccc1Cl .
56.9 ng·h/mL

====

ASSAY METHOD TEXT: Example 3: Phase I single-dose crossover bioequivalence/dose proportionality study, 1 mg, 2 mg, 4 mg tablets, healthy adult volunteers
Format: in vivo, human
CONDITION INFO: human, in vivo, po, 1 mg, tmax
ASSAY READOUT: Tmax (h)
Enter your answer as a number in h; do not include the unit.

Which measured Tmax value corresponds to N=C(N)NC(=O)Cc1c(Cl)cccc1Cl [guanfacine] ?
6

====

ASSAY METHOD TEXT: Example 2: open-label dose-escalation pharmacokinetic and safety study in children and adolescents with ADHD
Format: in vivo, human
CONDITION INFO: both sexes, human, plasma, oral, 2 mg, dose of 2 mg of guanfacine, fasted patients ages 13-17 suffering from ADHD; read-out: mean Cmax
ASSAY READOUT: Cmax

Form field: reported Cmax of N=C(N)NC(=O)Cc1c(Cl)cccc1Cl
~1.69 ng/mL

====

ASSAY METHOD TEXT: Example 3: Phase I single-dose crossover bioequivalence/dose proportionality study, 1 mg, 2 mg, 4 mg tablets, healthy adult volunteers
Assay type: in vivo, human
CONDITION INFO: human, in vivo, po, 2 mg, AUC0-t
ASSAY READOUT: AUC(0-t) (ng·h/mL)
Could you give me the number in ng·h/mL? Just the number is fine.

Would you kindly share the measured AUC(0-t) for N=C(N)NC(=O)Cc1c(Cl)cccc1Cl ?
55

====

ASSAY METHOD TEXT: Example 3: Phase I single-dose crossover bioequivalence/dose proportionality study, 1 mg, 2 mg, 4 mg tablets, healthy adult volunteers
Type: in vivo, human
CONDITION INFO: human, in vivo, po, 4 mg, Vz/F
ASSAY READOUT: Vd/F (L)
Dear colleague, please return just the value in L, with no unit written.

// returns reported Vd/F for input N=C(N)NC(=O)Cc1c(Cl)cccc1Cl [guanfacine]
854

====

ASSAY METHOD TEXT: Example 4: Phase I single-dose crossover bioequivalence study, 2.5 mg versus 2 mg tablets, healthy adult volunteers
Assay type: in vivo, human
CONDITION INFO: human, in vivo, po, 2 mg, Vz/F
ASSAY READOUT: Vd/F (L)
Write the answer as a number in L, unit excluded.

Quick check: Vd/F of N=C(N)NC(=O)Cc1c(Cl)cccc1Cl ?
884

====

ASSAY METHOD TEXT: Example 4: Phase I single-dose crossover bioequivalence study, 2.5 mg versus 2 mg tablets, healthy adult volunteers
Format: in vivo, human
CONDITION INFO: human, in vivo, 2.5 mg, mean Cmax
ASSAY READOUT: Cmax

Return reported Cmax; argument: N=C(N)NC(=O)Cc1c(Cl)cccc1Cl
~2.49 ng/mL

====

ASSAY METHOD TEXT: Example 2: open-label dose-escalation pharmacokinetic and safety study in children and adolescents with ADHD
Assay type: in vivo, human
CONDITION INFO: both sexes, human, plasma, oral, 2 mg, dose of 2 mg of guanfacine, fasted patients ages 6-12 suffering from ADHD; read-out: median Tmax
ASSAY READOUT: Tmax

Sample N=C(N)NC(=O)Cc1c(Cl)cccc1Cl [guanfacine] — what was its Tmax?
~5 h

====

ASSAY METHOD TEXT: Example 3: Phase I single-dose crossover bioequivalence/dose proportionality study, 1 mg, 2 mg, 4 mg tablets, healthy adult volunteers
Type: in vivo, human
CONDITION INFO: human, in vivo, 1 mg, AUC∞
ASSAY READOUT: AUC(0-inf)

So what does the record say about AUC(0-inf) for N=C(N)NC(=O)Cc1c(Cl)cccc1Cl [guanfacine] ?
~32.4 ng·h/mL

====

ASSAY METHOD TEXT: Example 3: Phase I single-dose crossover bioequivalence/dose proportionality study, 1 mg, 2 mg, 4 mg tablets, healthy adult volunteers
Format: in vivo, human
CONDITION INFO: human, in vivo, po, 1 mg, AUC0-∞
ASSAY READOUT: AUC(0-inf) (ng·h/mL)
Write down the numeric answer in ng·h/mL and omit the unit.

Given the entry N=C(N)NC(=O)Cc1c(Cl)cccc1Cl [guanfacine] , report its measured AUC(0-inf).
32.4

====

ASSAY METHOD TEXT: Example 4: Phase I single-dose crossover bioequivalence study, 2.5 mg versus 2 mg tablets, healthy adult volunteers
Assay type: in vivo, human
CONDITION INFO: human, in vivo, po, 2 mg, AUC0-last
ASSAY READOUT: AUC(0-t) (ng·h/mL)
# number only, unit ng·h/mL dropped from output

Entry N=C(N)NC(=O)Cc1c(Cl)cccc1Cl [guanfacine] : reported AUC(0-t) = ?
59.8

====

ASSAY METHOD TEXT: Example 2: open-label dose-escalation pharmacokinetic and safety study in children and adolescents with ADHD
Assay type: in vivo, human
CONDITION INFO: both sexes, human, plasma, oral, 2 mg, measured for the 2 mg formulation; fasted patients ages 6-12 suffering from ADHD
ASSAY READOUT: half-life (h)
Return type: number; implicit unit h.

Given the molecule N=C(N)NC(=O)Cc1c(Cl)cccc1Cl , what is its reported half-life?
14.4

====

ASSAY METHOD TEXT: Example 2: open-label dose-escalation pharmacokinetic and safety study in children and adolescents with ADHD
Format: in vivo, human
CONDITION INFO: both sexes, human, plasma, po, 4 mg, Day 28, 4 mg once daily oral; children 6-12 yrs, ADHD patients, N = 14; read-out: Tmax
ASSAY READOUT: Tmax

Which Tmax is reported for this compound? N=C(N)NC(=O)Cc1c(Cl)cccc1Cl
5.02 h

====

ASSAY METHOD TEXT: Example 2: open-label dose-escalation pharmacokinetic and safety study in children and adolescents with ADHD
Format: in vivo, human
CONDITION INFO: both sexes, human, plasma, po, 2 mg, single 2 mg oral dose, Day 1; children 6-12 yrs, ADHD patients, N = 14
ASSAY READOUT: half-life (h)
Please state the figure in h; there is no need to write the unit.

GET /values?readout=half-life&item= N=C(N)NC(=O)Cc1c(Cl)cccc1Cl [guanfacine]
14.4
